In this section, each of the compounds is paired with its reported inhibition at 10 µM.
- target.of.assay: BACE1 (Homo sapiens, UniProt P56817)
- Sequence (P56817 46-501): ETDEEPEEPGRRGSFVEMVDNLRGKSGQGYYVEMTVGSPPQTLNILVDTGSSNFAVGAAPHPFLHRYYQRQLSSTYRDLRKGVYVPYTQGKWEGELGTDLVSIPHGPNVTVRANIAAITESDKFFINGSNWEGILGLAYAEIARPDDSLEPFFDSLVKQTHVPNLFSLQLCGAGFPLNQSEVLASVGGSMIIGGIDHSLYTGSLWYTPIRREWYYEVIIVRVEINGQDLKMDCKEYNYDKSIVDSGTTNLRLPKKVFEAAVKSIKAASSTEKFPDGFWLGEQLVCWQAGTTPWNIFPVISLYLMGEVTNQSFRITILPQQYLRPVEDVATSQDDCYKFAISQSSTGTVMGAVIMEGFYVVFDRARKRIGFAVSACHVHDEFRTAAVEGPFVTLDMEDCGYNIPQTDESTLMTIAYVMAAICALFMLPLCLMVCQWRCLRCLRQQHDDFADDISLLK
- assay.protocol: BACE1 efficacy assay (FRET-based)
- Assay type: biochemical
- Parameters: purchased Life Technologies P2985
- cond: 10 μM test compound
Dear colleague, please return just the value in %, with no unit written.

• [2H]C([2H])([2H])Oc1cnc(C(=O)Nc2ccc(F)c([C@]3(CF)CC[C@](F)(CF)C(N)=N3)c2)cn1 = 97
• [2H]C([2H])([2H])Oc1cnc(C(=O)Nc2cc(F)c(F)c([C@]3(C)CC[C@@](F)(CF)C(N)=N3)c2)cn1 = 100
• [2H]C([2H])([2H])Oc1cnc(C(=O)Nc2ccc(F)c([C@]3(C)CC[C@@](F)(CF)C(N)=N3)c2)cn1 = 100
• [2H]C([2H])([2H])Oc1cnc(C(=O)Nc2ccc(F)c([C@]3(CF)CC[C@@](F)(CF)C(N)=N3)c2)cn1 = 97

Next compound, inhibition at 10 µM to be filled in.
**Query** Please give measured inhibition at 10 µM of the following entry: [2H]C([2H])([2H])Oc1cnc(C(=O)Nc2cc(F)c(F)c([C@]3(C)CC[C@](F)(CF)C(N)=N3)c2)cn1
**Result** 99

* * *

- assay.protocol: Bioanalysis of brain and plasma samples (UPLC-MS/MS)
- Type: in vivo, Sprague Dawley rats
- cond: male, Sprague Dawley, brain, po; rat, p.o., 10 mg/kg, 3 h; read-out: Mean rat brain conc.
measure: concentration at 3 h
Show the value, then the unit it is measured in.

**Query** Please report concentration at 3 h for the following molecule: [2H]C([2H])([2H])Oc1cnc(C(=O)Nc2ccc(F)c([C@]3(C)CC[C@@](F)(CF)C(N)=N3)c2)cn1
**Result** 700 ng/g

* * *

- assay.protocol: Bioanalysis of brain and plasma samples (UPLC-MS/MS)
- Assay type: in vivo, Sprague Dawley rats
- cond: male, Sprague-Dawley, plasma, po; rat, p.o., 20 mg/kg, 0.5 h; read-out: Mean rat plasma conc.
measure: concentration at 0.5 h (ng/mL)
Express it in ng/mL; write the number only.

**Query** Check the records and state concentration at 0.5 h for [2H]C([2H])([2H])Oc1cnc(C(=O)Nc2ccc(F)c([C@]3(C)CC[C@@](F)(CF)C(N)=N3)c2)cn1
**Result** 532

* * *

- assay.protocol: Bioanalysis of brain and plasma samples (UPLC-MS/MS)
- Assay type: in vivo, Sprague Dawley rats
- cond: male, Sprague-Dawley, brain, po; rat, p.o., 40 mg/kg, 6 h; read-out: Mean rat brain conc.
measure: concentration at 6 h (ng/g)
The figure you give is taken to be in ng/g; do not add the unit.

**Query** Tell me concentration at 6 h reported for [2H]C([2H])([2H])Oc1cnc(C(=O)Nc2ccc(F)c([C@]3(C)CC[C@@](F)(CF)C(N)=N3)c2)cn1
**Result** 3700
